Target: Serine/threonine-protein kinase pim-3 (Homo sapiens)
Experiment: Inhibition of human PIM3 using FITC-(AHX)RSRHSSYPAGT-COOH as substrate after 90 mins by mobility shift assay in presence of 5 mM ATP
pIC50: −log10 of the molar value.
observation type: pIC50

# annotated cases, reported pIC50 shown
CCOc1cccc(/C=C2\SC(=O)NC2=O)c1N1CCC[C@@H](N)C1 = 8.22
COc1cccc(/C=C2\SC(=O)NC2=O)c1N1CCC[C@@H](N)C1 = 8.00
N[C@@H]1CCCN(c2c(Cl)cccc2/C=C2\SC(=O)NC2=O)C1 = 7.70
N[C@@H]1CCCN(c2ccccc2/C=C2\SC(=O)NC2=O)C1 = 6.62

[1] N[C@@H]1CCCN(c2c(/C=C3\SC(=O)NC3=O)cccc2-c2ccncc2)C1
[2] N[C@@H]1CCCN(c2c(Br)cccc2/C=C2\SC(=O)NC2=O)C1
## Task Given the two records 1 and 2 , choose the one whose pIC50 value is lower. Answer by quoting the chosen item's label.
## Result 1

* * *

Items are presented alongside their recorded GI50.
Assay: Antiproliferative activity against human MOLM16 cells after 72 hrs by Cell Titer-Blue assay
Type: functional
Settings: MOLM16, 72 h
Give the value, in units of nM, as a plain number.

CC(C)Oc1cccc(/C=C2\SC(=O)NC2=O)c1N1CCC[C@@H](N)C1 = 20

Please examine the following record next.
Recorded result, N[C@@H]1CCCN(c2c(/C=C3\SC(=O)NC3=O)cccc2-c2ccccc2)C1 , GI50: 20

* * *

Target: Serine/threonine-protein kinase pim-2 (Homo sapiens, UniProt Q9P1W9)
Sequence (Q9P1W9 whole entry): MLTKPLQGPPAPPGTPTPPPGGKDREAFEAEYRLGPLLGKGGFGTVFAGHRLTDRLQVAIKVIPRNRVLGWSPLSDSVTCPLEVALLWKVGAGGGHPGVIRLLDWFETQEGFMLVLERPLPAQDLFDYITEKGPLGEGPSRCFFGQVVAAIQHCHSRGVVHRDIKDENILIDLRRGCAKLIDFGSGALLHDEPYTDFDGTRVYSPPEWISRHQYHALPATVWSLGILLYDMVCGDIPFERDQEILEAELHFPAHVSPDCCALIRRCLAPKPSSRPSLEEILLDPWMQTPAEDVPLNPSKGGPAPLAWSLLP
Assay: Inhibition of human PIM2 using FITC-(AHX)RSRHSSYPAGT-COOH as substrate after 90 mins by mobility shift assay in presence of 50 uM ATP
pIC50: −log10 of the molar value.
observation type: pIC50

O=C1NC(=O)/C(=C/c2ccccc2)S1 = 5.33
CCOc1cc(/C=C2\SC(=O)NC2=O)ccc1O = 6.80
COc1ccc(/C=C2\SC(=O)NC2=O)cc1OC = 5.60
N[C@H]1CCN(c2ccccc2/C=C2\SC(=O)NC2=O)C1 = 6.60

[a] N[C@H]1CCN(c2c(Cl)cccc2/C=C2\SC(=O)NC2=O)C1
[b] CC(C)(C)OC(=O)N[C@H]1CCN(c2ccccc2/C=C2\SC(=O)NC2=O)C1
## Task Given the two records a and b , choose the one whose pIC50 value is lower. Answer by quoting the chosen item's label.
## Result b

* * *

Items are presented alongside their recorded pIC50.
Target: Voltage-gated inwardly rectifying potassium channel KCNH2 (Homo sapiens)
Sequence (Q12809 whole entry): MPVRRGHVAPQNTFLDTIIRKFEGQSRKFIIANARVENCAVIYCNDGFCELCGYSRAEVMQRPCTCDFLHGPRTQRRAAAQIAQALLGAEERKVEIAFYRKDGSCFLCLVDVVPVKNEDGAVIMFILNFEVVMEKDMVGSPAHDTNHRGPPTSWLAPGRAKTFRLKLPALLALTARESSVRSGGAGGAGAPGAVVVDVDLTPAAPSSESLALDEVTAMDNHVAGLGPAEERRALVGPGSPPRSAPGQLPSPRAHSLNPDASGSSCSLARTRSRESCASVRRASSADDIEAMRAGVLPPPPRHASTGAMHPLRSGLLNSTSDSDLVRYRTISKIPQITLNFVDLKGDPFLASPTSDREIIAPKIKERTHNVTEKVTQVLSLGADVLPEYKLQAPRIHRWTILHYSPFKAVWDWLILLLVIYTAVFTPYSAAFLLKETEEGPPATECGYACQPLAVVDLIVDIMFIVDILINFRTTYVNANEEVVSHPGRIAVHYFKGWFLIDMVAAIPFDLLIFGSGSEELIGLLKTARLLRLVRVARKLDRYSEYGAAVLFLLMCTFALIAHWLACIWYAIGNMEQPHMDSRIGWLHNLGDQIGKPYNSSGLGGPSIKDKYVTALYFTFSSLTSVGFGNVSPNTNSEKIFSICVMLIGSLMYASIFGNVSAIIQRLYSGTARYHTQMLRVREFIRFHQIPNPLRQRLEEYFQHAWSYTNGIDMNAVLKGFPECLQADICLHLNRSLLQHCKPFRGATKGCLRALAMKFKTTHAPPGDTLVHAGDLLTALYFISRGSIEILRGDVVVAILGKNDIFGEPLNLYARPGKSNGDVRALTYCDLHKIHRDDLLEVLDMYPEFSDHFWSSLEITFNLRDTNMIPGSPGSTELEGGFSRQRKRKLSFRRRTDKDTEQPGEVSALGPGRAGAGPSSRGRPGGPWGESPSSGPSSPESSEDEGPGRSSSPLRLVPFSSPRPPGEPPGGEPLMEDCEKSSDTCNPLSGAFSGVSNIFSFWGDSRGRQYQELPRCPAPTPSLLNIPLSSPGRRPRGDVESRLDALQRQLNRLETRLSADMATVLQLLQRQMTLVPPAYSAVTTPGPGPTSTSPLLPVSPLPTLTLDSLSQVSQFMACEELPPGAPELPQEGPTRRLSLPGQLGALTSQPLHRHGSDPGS
pIC50: −log10 of the molar value.

# annotated cases, reported pIC50 shown
CC(C)COc1cccc(/C=C2\SC(=O)NC2=O)c1N1CCC[C@@H](N)C1 = 4.64
N[C@@H]1CCCN(c2ccccc2/C=C2\SC(=O)NC2=O)C1 = < 4.52
N[C@@H]1CCCN(c2c(/C=C3\SC(=O)NC3=O)cccc2-c2ccccc2)C1 = < 4.52

Please examine the following record next.
Recorded result, N[C@@H]1CCCN(c2c(Br)cccc2/C=C2\SC(=O)NC2=O)C1 , pIC50: < 4.52

* * *

Assay: Equilibrium solubility of the compound in phosphate buffer after 24 hrs at pH 7.4
Assay type: physicochemical
observation type: solubility thermodynamic at 24 h (µM)

[1] N[C@@H]1CCCN(c2c(/C=C3\SC(=O)NC3=O)cccc2-c2ccncc2)C1
[2] N[C@@H]1CCCN(c2c(/C=C3\SC(=O)NC3=O)cccc2-c2ccccc2)C1
## Task Given the two records 1 and 2 , choose the one whose solubility thermodynamic at 24 h value is lower. Answer by quoting the chosen item's label.
## Result 1
(1: 142 µM, 2: 263 µM)

* * *

Target: Serine/threonine-protein kinase pim-1 (Homo sapiens)
Test: Inhibition of human PIM1 using FITC-(AHX)RSRHSSYPAGT-COOH as substrate after 90 mins by mobility shift assay in presence of 50 uM ATP
observation type: IC50 (nM)

# annotated cases, reported IC50 shown
O=C1NC(=O)/C(=C/c2ccccc2N2CCNCC2)S1 = 28
N[C@H]1CCN(c2cc(Cl)ccc2/C=C2\SC(=O)NC2=O)C1 = 12

[1] N[C@@H]1CCCN(c2ccccc2/C=C2\SC(=O)NC2=O)C1
[2] O=C1NC(=O)/C(=C/c2ccccc2)S1
[3] CN(C)C1CCN(c2ccccc2/C=C2\SC(=O)NC2=O)C1 (configuration not stated)
## Task Could you please order the items by IC50, going from the lowest number to the highest? Record the ranking as a list of labels in the requested order.
## Result 1, 3, 2
(1: 9 nM, 3: 61 nM, 2: 890 nM)

* * *

Target: Serine/threonine-protein kinase pim-1 (Homo sapiens)
Assay: Inhibition of human PIM1 using FITC-(AHX)RSRHSSYPAGT-COOH as substrate after 90 mins by mobility shift assay in presence of 5 mM ATP
observation type: IC50 (nM)

# annotated cases, reported IC50 shown
N[C@@H]1CCCN(c2c(Cl)cccc2/C=C2\SC(=O)NC2=O)C1 = 20
N[C@@H]1CCCN(c2c(Br)cccc2/C=C2\SC(=O)NC2=O)C1 = 10
N[C@@H]1CCCN(c2c(/C=C3\SC(=O)NC3=O)cccc2-c2ccncc2)C1 = 4
N[C@@H]1CCCN(c2ccccc2/C=C2\SC(=O)NC2=O)C1 = 100
CC(C)COc1cccc(/C=C2\SC(=O)NC2=O)c1N1CCC[C@@H](N)C1 = 8

[P] COc1cccc(/C=C2\SC(=O)NC2=O)c1N1CCC[C@@H](N)C1
[Q] CCOc1cccc(/C=C2\SC(=O)NC2=O)c1N1CCC[C@@H](N)C1
## Task Which entry has a larger number for IC50, P or Q ? Answer by quoting the chosen item's label.
## Result P

* * *

Target: Serine/threonine-protein kinase pim-1 (Homo sapiens, UniProt P11309)
Sequence (P11309 whole entry): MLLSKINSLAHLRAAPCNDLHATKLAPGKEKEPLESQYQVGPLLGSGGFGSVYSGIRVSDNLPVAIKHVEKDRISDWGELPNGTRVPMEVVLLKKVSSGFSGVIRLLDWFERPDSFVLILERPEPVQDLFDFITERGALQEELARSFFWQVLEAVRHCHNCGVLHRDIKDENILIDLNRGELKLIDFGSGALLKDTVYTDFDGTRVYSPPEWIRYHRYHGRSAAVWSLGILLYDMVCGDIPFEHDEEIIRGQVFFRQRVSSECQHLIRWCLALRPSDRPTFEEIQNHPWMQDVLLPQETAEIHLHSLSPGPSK
Test: Inhibition of human PIM1 using FITC-(AHX)RSRHSSYPAGT-COOH as substrate after 90 mins by mobility shift assay in presence of 50 uM ATP
pIC50: −log10 of the molar value.
observation type: pIC50

O=C1NC(=O)/C(=C/c2cccc(Cl)c2N2CCNCC2)S1 = 7.74
CCOc1cc(/C=C2\SC(=O)NC2=O)ccc1O = 6.80
COc1ccc(/C=C2\SC(=O)NC2=O)cc1OC = 6.02

[P] CC(C)(C)OC(=O)N[C@H]1CCN(c2ccccc2/C=C2\SC(=O)NC2=O)C1
[Q] N[C@H]1CCN(c2ccccc2/C=C2\SC(=O)NC2=O)C1
## Task Which entry has a larger number for pIC50, P or Q ? Answer by quoting the chosen item's label.
## Result Q
(Q: 7.44, P: 5.82)

* * *

Experiment: in vitro
Settings: rat, liver microsomes
observation type: microsomal CLint at 2 µM (µL/min/mg)

# annotated cases, reported microsomal CLint at 2 µM shown
CCOc1cccc(/C=C2\SC(=O)NC2=O)c1N1CCC[C@@H](N)C1 = 12.1
CC(C)COc1cccc(/C=C2\SC(=O)NC2=O)c1N1CCC[C@@H](N)C1 = 6.9

[I] N[C@@H]1CCCN(c2c(Cl)cccc2/C=C2\SC(=O)NC2=O)C1
[II] COc1cccc(/C=C2\SC(=O)NC2=O)c1N1CCC[C@@H](N)C1
## Task Given the two records I and II , choose the one whose microsomal CLint at 2 µM value is lower. Answer by quoting the chosen item's label.
## Result II

* * *

Assay: Antiproliferative activity against human MOLM16 cells after 72 hrs by Cell Titer-Blue assay
Assay type: functional
Details: MOLM16, 72 h
Items are presented alongside their recorded GI50.
Give the value, in units of nM, as a plain number.

CCOc1cccc(/C=C2\SC(=O)NC2=O)c1N1CCC[C@@H](N)C1 = 80
N[C@@H]1CCCN(c2c(Br)cccc2/C=C2\SC(=O)NC2=O)C1 = 100
COc1cccc(/C=C2\SC(=O)NC2=O)c1N1CCC[C@@H](N)C1 = 210
CC(C)COc1cccc(/C=C2\SC(=O)NC2=O)c1N1CCC[C@@H](N)C1 = 80
N[C@@H]1CCCN(c2c(Cl)cccc2/C=C2\SC(=O)NC2=O)C1 = 190
N[C@@H]1CCCN(c2ccccc2/C=C2\SC(=O)NC2=O)C1 = 490

Please examine the following record next.
Recorded result, N[C@@H]1CCCN(c2c(/C=C3\SC(=O)NC3=O)cccc2-c2ccncc2)C1 , GI50: 2280

* * *

Items are presented alongside their recorded IC50.
Biological target: Serine/threonine-protein kinase pim-2 (Homo sapiens, UniProt Q9P1W9)
Test: Inhibition of human PIM2 using FITC-(AHX)RSRHSSYPAGT-COOH as substrate after 90 mins by mobility shift assay in presence of 50 uM ATP
Give the value, in units of µM, as a plain number.

O=C1NC(=O)/C(=C/c2ccccc2N2CCNCC2)S1 = 0.18

Please examine the following record next.
Recorded result, O=C1NC(=O)/C(=C/c2cccc(Cl)c2N2CCNCC2)S1 , IC50: 0.082
